Hi! I'm sharing some MIC results obtained with penicillium.

Here are 3 compounds together with their reported answers.
INSERT INTO measurements (compound, meas_value) VALUES
  ('Clc1ccccc1C(c1ccc(-c2ccccc2)cc1)n1ccnc1 (stereo not shown) [drawing 10]', '< 0.1 µg/mL'),
  ('Clc1ccccc1C(c1ccc(Oc2ccccc2)cc1)n1ccnc1 (stereo not shown)', '< 0.1 µg/mL'),
  ('Clc1cccc(C(c2ccc(-c3ccccc3)cc2)n2ccnc2)c1 (stereo not shown) [drawing 11]', '< 0.1 µg/mL');

Then this compound:
If you can, please state the reported MIC value of c1ccc(-c2ccc(C(c3ccccc3)n3ccnc3)cc2)cc1 (stereo not shown) [drawing 9] .
< 0.1 µg/mL

---

Reported MIC values for Streptococcus pyogenes W values are given for each entry in this list.
Test system: Streptococcus pyogenes W
Assay: Antibacterial activity in vitro, plast test (MIC)
Assay type: cell-based
Details: agar plate, 5 × 10^3 /plate, pH 7.4; in µg/mL
Reply: number alone, nothing else.

Here are 3 compounds together with their reported answers.
INSERT INTO assay_data (compound, meas_value) VALUES
  ('Clc1ccc(C(c2ccc(-c3ccccc3)cc2)n2ccnc2)cc1 (centres unmarked)', 10),
  ('CC(C)(C)c1ccc(C(c2ccc(-c3ccccc3)cc2)n2ccnc2)cc1 (centres unmarked)', 128),
  ('Clc1ccccc1C(c1ccc(-c2ccccc2)cc1)n1ccnc1 (centres unmarked) [drawing 14]', 128);

Then this compound:
Missing value: MIC values for Streptococcus pyogenes W, Streptococcus pyogenes W, entry Clc1cccc(C(c2ccc(-c3ccccc3)cc2)n2ccnc2)c1 (centres unmarked) [drawing 16] . Fill in?
128
